Biological target: human β1-receptor (Homo sapiens)
Construct: THP-1 cell line, i.e., cells expressing both human β2- and β1-receptors; host or cells: THP-1 cells
Sequence (P08588 whole entry): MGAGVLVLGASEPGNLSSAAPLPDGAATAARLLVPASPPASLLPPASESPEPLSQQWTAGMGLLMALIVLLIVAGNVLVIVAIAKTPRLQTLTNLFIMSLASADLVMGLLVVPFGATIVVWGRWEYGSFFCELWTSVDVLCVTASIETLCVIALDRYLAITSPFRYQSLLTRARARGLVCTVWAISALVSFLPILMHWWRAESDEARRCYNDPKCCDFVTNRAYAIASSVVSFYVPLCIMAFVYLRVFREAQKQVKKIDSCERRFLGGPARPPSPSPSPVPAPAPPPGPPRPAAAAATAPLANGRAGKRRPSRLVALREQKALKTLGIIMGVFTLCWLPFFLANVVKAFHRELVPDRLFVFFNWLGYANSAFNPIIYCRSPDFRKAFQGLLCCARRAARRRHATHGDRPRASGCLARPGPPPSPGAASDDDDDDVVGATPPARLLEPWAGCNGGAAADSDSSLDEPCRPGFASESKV
Experiment: Human β1-receptor stimulation test (cAMP production in THP-1 cells)
Format: cell-based
Settings: THP-1 cells, cAMP production, with ICI-118551; activity not observed up to a maximum concentration; read-out: β1-stimulating activity
TEST READOUT: EC50

Please look at this compound and report its EC50: C[C@H](Cc1c[nH]c2c(OCC(=O)O)cccc12)NC[C@H](O)c1cccnc1 [Example 2]
> 10 µM

----------
Molecular target: human β3-receptor (Homo sapiens)
Construct: SK-N-MC cell line, i.e., cells permanently expressing human β3- and human β1-receptors
Sequence (P13945 whole entry): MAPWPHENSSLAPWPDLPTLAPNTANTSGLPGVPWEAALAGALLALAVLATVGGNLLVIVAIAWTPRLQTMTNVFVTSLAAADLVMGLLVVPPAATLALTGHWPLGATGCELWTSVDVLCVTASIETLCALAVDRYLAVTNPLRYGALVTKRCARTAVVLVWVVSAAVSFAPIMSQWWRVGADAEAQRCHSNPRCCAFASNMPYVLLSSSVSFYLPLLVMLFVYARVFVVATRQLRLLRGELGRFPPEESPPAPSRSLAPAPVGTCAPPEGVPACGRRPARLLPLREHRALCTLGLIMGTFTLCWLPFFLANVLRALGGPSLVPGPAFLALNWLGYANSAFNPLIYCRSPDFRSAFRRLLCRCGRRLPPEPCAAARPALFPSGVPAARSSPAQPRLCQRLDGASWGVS
Assay: Human β3-receptor stimulation test (cAMP production in SK-N-MC cells)
Details: in the presence of β1-receptor inhibitor CGP-20712A 10^−6 M, read-out: EC50 value of β3-stimulating activity
TEST READOUT: EC50 (nM)
The reply should contain only the number, in nM.

Please look at this compound and report its EC50: C[C@H](Cc1c[nH]c2c(OCC(=O)O)cccc12)NC[C@H](O)c1cccnc1 [Example 2]
48

Data origin, for the record: patent US7217724B2
